pEC50 for assorted compounds
test-target: GPR174 (Homo sapiens)
Sequence (Q9BXC1 whole entry): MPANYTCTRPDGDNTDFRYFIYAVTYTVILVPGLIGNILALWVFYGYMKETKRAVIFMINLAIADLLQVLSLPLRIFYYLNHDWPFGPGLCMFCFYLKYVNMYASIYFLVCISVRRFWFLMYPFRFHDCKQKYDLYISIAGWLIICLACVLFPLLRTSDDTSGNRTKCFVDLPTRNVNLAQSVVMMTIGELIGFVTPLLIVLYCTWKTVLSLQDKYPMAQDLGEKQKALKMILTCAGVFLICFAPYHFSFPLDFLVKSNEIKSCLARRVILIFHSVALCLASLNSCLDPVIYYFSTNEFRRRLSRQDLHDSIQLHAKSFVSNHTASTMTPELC
assay-details: CRA (EC50) of GPR174 inhibitor compounds, tested as described in US 20200276190
applied-conditions: multiple values = separate experiments
pEC50 here: minus log base 10 of the concentration, concentration in moles per litre.

Below are worked cases with known answers.
compound: Cc1ccccc1Nc1nnc(-c2ccc(C)c(S(N)(=O)=O)c2)c2ccccc12
pEC50: 5.30
--
compound: CC(=O)c1ccc(N2CCN(C(=O)c3ccc(F)cc3)CC2)c(F)c1
pEC50: 5.39
--
compound: CCCC(=O)c1ccc(N2CCN(S(=O)(=O)c3ccc(C)cc3)CC2)c(F)c1
pEC50: 6.70
--
compound: Cc1cc(Cc2ccc(NC(=O)c3cccs3)c(C)c2)ccc1NC(=O)c1cccs1
pEC50: 5.57
--
compound: CCOc1ccc(C2C3=C(CCCC3=O)NC3=C2C(=O)c2ccccc23)cc1 (stereo not drawn)
pEC50: 5.54

Next compound, pEC50 to be filled in.
*Q* Note down pEC50 recorded for O=C(c1ccccc1)N1CCN(c2cc(N3CCCCC3)c(F)cc2[N+](=O)[O-])CC1
*A* 5.85

This collection of values is drawn from patent US20230285556A1.
